Quick reference: degraded at 24 h of the listed items.
Test: Chemical stability (relative purity loss) of peptide compounds in buffer formulations (Table 6)
Type: physicochemical
Conditions: 50 mM phosphate buffer pH 7.4 + acetonitrile (3:1), 2° C. and 37° C., read-out: Chemical stability (relative purity loss), Buffer pH 7.4
Numbered stars: 1 amine (or outer) side, 2 acyl side, 3 side chain; on linkers, the order of the positions; unused ones are H or OH. Bridge positions count the residues as written; N and C are the ends. Square brackets hold non-standard residues; d marks the D form. Peptide text beside a SMILES is read from it. * marks the point of attachment. Lys(Me,(CH2)4NMe(CH2)4CO) = CN(CCCCC(=O)[*:3])CCCCN(C)CCCC[C@H](N[*:1])C(=O)[*:2]; 2Nal = N[C@@H](Cc1ccc2ccccc2c1)C(=O)O; 3Pal = N[C@@H](Cc1cccnc1)C(=O)O; Thp = NC1(C(=O)O)CCOCC1; Me2NCH2CH2 = CN(C)CC*; Aib = CC(C)(N)C(=O)O; Sar = CNCC(=O)O
Your answer should be a plain number; it is taken to be in %.

CN(C)CCOc1ccc(C[C@@H]2NC(=O)C3(CCOCC3)NC(=O)[C@H](CCC(N)=O)NC(=O)[C@H](Cc3c[nH]c4ccccc34)NC(=O)CCCCN(C)CCCCN(C)CCCC[C@@H](C(=O)N[C@@H](CO)C(=O)N[C@@H](Cc3cccnc3)C(=O)N(C)CC(N)=O)NC(=O)C(C)(C)NC(=O)[C@H](Cc3ccc4ccccc4c3)NC2=O)cc1 [compound 41] (WQ[Thp]Y(Me2NCH2CH2)[2Nal][Aib][Lys(Me,(CH2)4NMe(CH2)4CO)]S[3Pal][Sar]-NH2; lactam N-7) :: 0.4

Next, consider the following compound.
Endpoint output: degraded at 24 h of CN(C)CCOc1ccc(C[C@@H]2NC(=O)C3(CCOCC3)NC(=O)[C@H](CCC(N)=O)NC(=O)[C@H](Cc3c[nH]c4ccccc34)NC(=O)CCCCN(C)CCCCN(C)CCCC[C@@H](C(=O)N[C@@H](CO)C(=O)N[C@@H](Cc3cccnc3)C(=O)N(C)CC(N)=O)NC(=O)C3(CCOCC3)NC(=O)[C@H](Cc3ccc4ccccc4c3)NC2=O)cc1 [compound 43] (WQ[Thp]Y(Me2NCH2CH2)[2Nal][Thp][Lys(Me,(CH2)4NMe(CH2)4CO)]S[3Pal][Sar]-NH2; lactam N-7) . Value?
0.7

====

Recorded measurements of solubility at 2 h, one per entry
Assay: Solubility of peptide compounds in buffer formulations (Table 5)
Format: physicochemical
Details: aqueous buffer; 50 mM phosphate buffer pH 7.4, 2 h agitation, target 1 mg/ml; read-out: Solubility, Buffer pH 7.4
Numbered stars: 1 amine (or outer) side, 2 acyl side, 3 side chain; on linkers, the order of the positions; unused ones are H or OH. Bridge positions count the residues as written; N and C are the ends. Square brackets hold non-standard residues; d marks the D form. Peptide text beside a SMILES is read from it. * marks the point of attachment. Lys(Me,(CH2)4NMe(CH2)5CO) = CN(CCCCCC(=O)[*:3])CCCCN(C)CCCC[C@H](N[*:1])C(=O)[*:2]; Lys(Me,(CH2)4NMe(CH2)4CO) = CN(CCCCC(=O)[*:3])CCCCN(C)CCCC[C@H](N[*:1])C(=O)[*:2]; Trp(7-Me) = Cc1cccc2c(C[C@H](N)C(=O)O)c[nH]c12; 2Nal = N[C@@H](Cc1ccc2ccccc2c1)C(=O)O; 3Pal = N[C@@H](Cc1cccnc1)C(=O)O; Thp = NC1(C(=O)O)CCOCC1; Me2NCH2CH2 = CN(C)CC*; Aib = CC(C)(N)C(=O)O; Sar = CNCC(=O)O

CN(C)CCOc1ccc(C[C@@H]2NC(=O)C3(CCOCC3)NC(=O)[C@H](CCC(N)=O)NC(=O)[C@H](Cc3c[nH]c4ccccc34)NC(=O)CCCCN(C)CCCCN(C)CCCC[C@@H](C(=O)N[C@@H](CO)C(=O)N[C@@H](Cc3cccnc3)C(=O)N(C)CC(N)=O)NC(=O)C3(CCOCC3)NC(=O)[C@H](Cc3ccc4ccccc4c3)NC2=O)cc1 [compound 43] (WQ[Thp]Y(Me2NCH2CH2)[2Nal][Thp][Lys(Me,(CH2)4NMe(CH2)4CO)]S[3Pal][Sar]-NH2; lactam N-7) :: ≥ 1220 µg/mL

# ---- query compound ----
Fill in: solubility at 2 h of CC(=O)NCCCC[C@@H]1NC(=O)[C@H](Cc2c[nH]c3c(C)cccc23)NC(=O)CCCCCN(C)CCCCN(C)CCCC[C@@H](C(=O)NCC(=O)N[C@@H](Cc2cccnc2)C(=O)N(C)CC(N)=O)NC(=O)C(C)(C)NC(=O)[C@H](Cc2ccc3ccccc3c2)NC(=O)[C@H](Cc2ccc(OCCN(C)C)cc2)NC(=O)C2(CCOCC2)NC1=O [compound 27] ([Trp(7-Me)]K(Ac)[Thp]Y(Me2NCH2CH2)[2Nal][Aib][Lys(Me,(CH2)4NMe(CH2)5CO)]G[3Pal][Sar]-NH2; lactam N-7) is ___
≥ 960 µg/mL

====

Test: Protease stability in simulated gastric fluids (FaSSGF) (Table 7)
Type: in vitro ADME
Details: fassgf with pepsin, 60 min, 37° C., read-out: Remaining percentage of peptide compound, FaSSGF 60 (min)
Numbered stars: 1 amine (or outer) side, 2 acyl side, 3 side chain; on linkers, the order of the positions; unused ones are H or OH. Bridge positions count the residues as written; N and C are the ends. Square brackets hold non-standard residues; d marks the D form. Peptide text beside a SMILES is read from it. * marks the point of attachment. X2 = O=C(Cc1ccc(-c2ccc(CC(=O)[*:2])cc2)cc1)[*:1]; Trp(7-Me) = Cc1cccc2c(C[C@H](N)C(=O)O)c[nH]c12; 2Nal = N[C@@H](Cc1ccc2ccccc2c1)C(=O)O; 3Pal = N[C@@H](Cc1cccnc1)C(=O)O; Thp = NC1(C(=O)O)CCOCC1; Me2NCH2CH2 = CN(C)CC*; Aib = CC(C)(N)C(=O)O; Sar = CNCC(=O)O
quantity measured: remaining at 1 h, 1 µM (%)
Quick note: give the figure in %, leave out the unit.

Entry Cc1cccc2c(C[C@@H]3NC(=O)Cc4ccc(cc4)-c4ccc(cc4)CC(=O)NCCCC[C@@H](C(=O)N[C@@H](CC(N)=O)C(=O)N[C@@H](Cc4cccnc4)C(=O)N(C)CC(N)=O)NC(=O)C(C)(C)NC(=O)[C@H](Cc4ccc5ccccc5c4)NC(=O)[C@H](Cc4ccc(OCCN(C)C)cc4)NC(=O)C4(CCOCC4)NC(=O)[C@H](CCC(N)=O)NC3=O)c[nH]c12 [compound 15] ([Trp(7-Me)]Q[Thp]Y(Me2NCH2CH2)[2Nal][Aib]KN[3Pal][Sar]-NH2; linker N-7 via X2) has what remaining at 1 h, 1 µM?
87

====

Experiment: Chemical stability (relative purity loss) of peptide compounds in buffer formulations (Table 6)
Assay type: physicochemical
Details: 50 mM phosphate buffer pH 7.4 + acetonitrile (3:1), 2° C. and 37° C., read-out: Chemical stability (relative purity loss), Buffer pH 7.4
Numbered stars: 1 amine (or outer) side, 2 acyl side, 3 side chain; on linkers, the order of the positions; unused ones are H or OH. Bridge positions count the residues as written; N and C are the ends. Square brackets hold non-standard residues; d marks the D form. Peptide text beside a SMILES is read from it. * marks the point of attachment. Lys(Me,(CH2)4NMe(CH2)5CO) = CN(CCCCCC(=O)[*:3])CCCCN(C)CCCC[C@H](N[*:1])C(=O)[*:2]; Trp(7-Me) = Cc1cccc2c(C[C@H](N)C(=O)O)c[nH]c12; αMeLys(Me2) = CN(C)CCCC[C@](C)(N)C(=O)O; 2Nal = N[C@@H](Cc1ccc2ccccc2c1)C(=O)O; 3Pal = N[C@@H](Cc1cccnc1)C(=O)O; Thp = NC1(C(=O)O)CCOCC1; Me2NCH2CH2 = CN(C)CC*; Sar = CNCC(=O)O
quantity measured: degraded at 24 h (%)
Provide the reading as a plain figure in %.

Name the reported degraded at 24 h value associated with the compound CC(=O)NCCCC[C@@H]1NC(=O)[C@H](Cc2c[nH]c3c(C)cccc23)NC(=O)CCCCCN(C)CCCCN(C)CCCC[C@@H](C(=O)N[C@@H](CC(N)=O)C(=O)N[C@@H](Cc2cccnc2)C(=O)N(C)CC(N)=O)NC(=O)[C@](C)(CCCCN(C)C)NC(=O)[C@H](Cc2ccc3ccccc3c2)NC(=O)[C@H](Cc2ccc(OCCN(C)C)cc2)NC(=O)C2(CCOCC2)NC1=O [compound 34] ([Trp(7-Me)]K(Ac)[Thp]Y(Me2NCH2CH2)[2Nal][αMeLys(Me2)][Lys(Me,(CH2)4NMe(CH2)5CO)]N[3Pal][Sar]-NH2; lactam N-7)
0
